Test system: Citrobacter diversus
Experiment: MIC against Gram-negative bacteria: Citrobacter diversus
Type: cell-based
Details: Citrobacter diversus; 5×10^5 CFU/mL; 10 h cultivation at 37° C.
propertyLabel: MIC against C. diversus (µg/mL)
Numbers only here, please. The scale is µg/mL.

INSERT INTO results (substance, propertylabel, observedresult) VALUES
  ('PRT1376 (ATRMCPADCRGRGRCVQGVCLCHVGYGGEDCG; listed as Homo sapiens)', 'MIC against C. diversus', 50),
  ('PRT1482 (LCSFGCGSGICIAPNVCSCQDGEQGATCP; listed as Homo sapiens)', 'MIC against C. diversus', 12.5);

Now, please, on to the next substance.
Input: Fill in the blank: the reported MIC against C. diversus of PRT1408 (NEICSVDCGSHGVCMGGTCRCEEGWTGPACNQ; listed as Homo sapiens) is ____.
Output: 12.5

----------
System: Serratia marcescens
Assay: MIC against Gram-negative bacteria: Serratia marcescens
Format: cell-based
Details: Serratia marcescens; 96-well plate, 5×10^5 CFU/mL, 37° C., 10 h
Listing of recorded MIC (μg/mL) S. marcescens by entry.
Numbers only here, please. The scale is µg/mL.

Before answering, review these 6 worked examples.
INSERT INTO measurements (substance, studysystem, scaleunit, observedresult) VALUES
  ('PRT88 (HRMDQQCPRGWWGSPTCGPCNCDVHKGFDPNCN; listed as Homo sapiens)', 'Serratia marcescens', 'µg/mL', 12.5),
  ('PRT89 (TNGQCHCKEFHYRPRGSDSCLPCDCYPVGSTSRSCA; listed as Homo sapiens)', 'Serratia marcescens', 'µg/mL', 12.5),
  ('PRT58 (PCALGEGPACAHCAPDNSTRCGSCNPGYVLAQGLCR; listed as Homo sapiens)', 'Serratia marcescens', 'µg/mL', 50),
  ('PRT38 (VRDLCGQRTTDACEQLCDPETGECSCHEGYAPDPVHRHLCV; listed as Homo sapiens)', 'Serratia marcescens', 'µg/mL', 50),
  ('hF VII-EGF1: human coagulation factor VII-EGF1 domain protein, molecular weight about 3.9 kD, recombinant, released from RFP fusion by rTEV (DGDQCASSPCQNGGSCKDQLQSYICFCLPAFEGRNCE; listed as Homo sapiens)', 'Serratia marcescens', 'µg/mL', 12.5),
  ('PRT142 (PCPGRYLRAGKCAELPNCLDDLGGFACECATGFELGKDGRSCV; listed as Homo sapiens)', 'Serratia marcescens', 'µg/mL', 12.5);

Input: Fill in the blank: the reported MIC (μg/mL) S. marcescens of PRT40 (KGIDCSDGFNGGCEQLCLQQTLPLPYDATSSTIFMFCGCVEEYKLAPDGKSCL; listed as Homo sapiens) is ____.
Output: 12.5

Input: Please answer likewise for PRT1496 (EISKCPQPCRNGGKCIGKSKCKCSKGYQGDLCS; listed as Homo sapiens)
Output: 25

Input: Please answer likewise for PRT1497 (KPVCEPGCGAHGTCHEPNKCQCQEGWHGRHCN; listed as Homo sapiens)
Output: 12.5

Input: Please answer likewise for PRT91 (DTNECIQFPFVCPRDKPVCVNTYGSYRCRTNKKCSRGYEPNEDGTAC; listed as Homo sapiens)
Output: 12.5

----------
System: Aeromonas hydrophila
Assay: MIC against Gram-negative bacteria: Aeromonas hydrophila
Type: cell-based
Conditions: A. hydrophila; 10 h cultivation at 37° C.; 5×10^5 CFU/mL
Listing of recorded MIC (μg/mL) A. hydrophila by entry.
Numbers only here, please. The scale is µg/mL.

Before answering, review these 4 worked examples.
INSERT INTO measurements (substance, observedresult) VALUES
  ('PRT830 (CALGNGGCQHHCVQLTITRHRCQCRPGFQLQEDGRHC; listed as Homo sapiens)', 12.5),
  ('PRT184 (DLNYCTHHSPCKNGATCSNSGQRSYTCTCRPGYTGVDCE; listed as Homo sapiens)', 12.5),
  ('PRT761 (RKDVCQAIDHGCEHICVNSDDSYTCECLEGFRLAEDGKRCR; listed as Homo sapiens)', 25),
  ('PRT813 (FGVNCSSSCSCGGAPCHGVTGQCRCPPGRTGEDCE; listed as Homo sapiens)', 50);

Input: Fill in the blank: the reported MIC (μg/mL) A. hydrophila of PRT870 (CECFGHSNRCSYIDLLNTVICVSCKHNTRGQHCELCRLGYFRNASAQLDDENVCIE; listed as Homo sapiens) is ____.
Output: 12.5
